# Tested on: Staphylococcus aureus SA1199B
# Format: cell-based
# Protocol: The MIC's were determined using a standard broth micro-dilution assay.
For each entry below, report its MIC value.

Need MIC of CNC(CC(C)C)C(=O)NC1C(=O)NC(CC(N)=O)C(=O)NC2C(=O)NC3C(=O)NC(C(=O)NC(C(=O)O)c4cc(O)cc(O)c4-c4cc3ccc4O)C(OC3CC(C)(N)C(O)C(C)O3)c3ccc(c(Cl)c3)Oc3cc2cc(c3OC2OC(CO)C(O)C(O)C2OC2CC(C)(NCc3ccc(-c4ccccc4[N+](=O)[O-])c([N+](=O)[O-])c3)C(O)C(C)O2)Oc2ccc(cc2Cl)C1O (stereo not drawn) , thanks.
≤ 0.06 µg/mL

Which MIC is listed for CNC(CC(C)C)C(=O)NC1C(=O)NC(CC(N)=O)C(=O)NC2C(=O)NC3C(=O)NC(C(=O)NC(C(=O)O)c4cc(O)cc(O)c4-c4cc3ccc4O)C(OC3CC(C)(N)C(O)C(C)O3)c3ccc(c(Cl)c3)Oc3cc2cc(c3OC2OC(CO)C(O)C(O)C2OC2CC(C)(NCc3ccc(O)cc3)C(O)C(C)O2)Oc2ccc(cc2Cl)C1O (stereo not drawn) ?
≤ 0.06 µg/mL

Name the reported MIC value associated with the compound CC(C)CC(C(=O)NC1C(=O)NC(CC(N)=O)C(=O)NC2C(=O)NC3C(=O)NC(C(=O)NC(C(=O)O)c4cc(O)cc(O)c4-c4cc3ccc4O)C(OC3CC(C)(NCc4ccc(-c5ccccc5)cc4)C(O)C(C)O3)c3ccc(c(Cl)c3)Oc3cc2cc(c3OC2OC(CO)C(O)C(O)C2OC2CC(C)(NCc3ccc(-c4ccccc4)cc3)C(O)C(C)O2)Oc2ccc(cc2Cl)C1O)N(C)Cc1ccc(-c2ccccc2)cc1 (stereo not drawn)
> 64 µg/mL

* * *

What MIC was measured for each of the following?
# System: Staphylococcus aureus S13E
# Assay type: cell-based
Hi! Could you send only the number? It should be in µg/mL, unit omitted.

Quick check: MIC on Staphylococcus aureus S13E, item CNC(CC(C)C)C(=O)NC1C(=O)NC(CC(N)=O)C(=O)NC2C(=O)NC3C(=O)NC(C(=O)NC(C(=O)O)c4cc(O)cc(O)c4-c4cc3ccc4O)C(OC3CC(C)(NCc4ccc(-c5ccccc5)cc4)C(O)C(C)O3)c3ccc(c(Cl)c3)Oc3cc2cc(c3OC2OC(CO)C(O)C(O)C2OC2CC(C)(NCc3ccc(-c4ccccc4)cc3)C(O)C(C)O2)Oc2ccc(cc2Cl)C1O (stereo not drawn) ?
0.5

Request: MIC, test system Staphylococcus aureus S13E, entry CNC(CC(C)C)C(=O)NC1C(=O)NC(CC(N)=O)C(=O)NC2C(=O)NC3C(=O)NC(C(=O)NC(C(=O)O)c4cc(O)cc(O)c4-c4cc3ccc4O)C(OC3CC(C)(N)C(O)C(C)O3)c3ccc(c(Cl)c3)Oc3cc2cc(c3OC2OC(CO)C(O)C(O)C2OC2CC(C)(NCc3ccc(OC(C)=O)c(OC)c3)C(O)C(C)O2)Oc2ccc(cc2Cl)C1O (stereo not drawn)
0.5

State its MIC on Staphylococcus aureus S13E: CNC(CC(C)C)C(=O)NC1C(=O)NC(CC(N)=O)C(=O)NC2C(=O)NC3C(=O)NC(C(=O)NC(C(=O)O)c4cc(O)cc(O)c4-c4cc3ccc4O)C(OC3CC(C)(N)C(O)C(C)O3)c3ccc(c(Cl)c3)Oc3cc2cc(c3OC2OC(CO)C(O)C(O)C2OC2CC(C)(NCc3ccc(N4CCN(C)CC4)cc3)C(O)C(C)O2)Oc2ccc(cc2Cl)C1O (stereo not drawn)
0.5
